- assay comment: physchem
- applied conditions: saline or isotonic
property name: solubility
In your response, the unit should come after the numeric value.

Entry under review: Nc1cccc(F)c1C(=O)O . Reported solubility?
20 mM
